molecular target: AOC1 (Homo sapiens, UniProt P19801); construct: purchased R&D Systems 8297-AO-010; experiment: AOC1 biochemical assay (Amplex Red); settings: read-out: AOC1 IC50
reported.endpoint: IC50 (µM)

| molecule | reported.endpoint | measured.number |
| --- | --- | --- |
| CC(C)(O)CNC(=O)[C@H]1CCN(S(=O)(=O)c2ccc(OC/C(=C\F)CN)nc2)C1 | IC50 | 8.14 |

1. CNC(=O)[C@H]1[C@@H]2CN(S(=O)(=O)c3ccc(OC/C(=C\F)CN)nc3)C[C@@H]21
2. CN(C)C(=O)[C@H]1CCN(S(=O)(=O)c2ccc(OC/C(=C\F)CN)nc2)C1
Which has the higher IC50, 1 or 2 ? Bench note: the answer is the label of the chosen record.
2
(2: 3.42 µM, 1: 1.26 µM)

---

molecular target: human AOC3 enzyme (recombinant CHO cells) (Homo sapiens); construct: expressed in transfected cells; host or cells: CHO cells; experiment: AOC3 biochemical assay (MAO-Glo), human enzyme; conditions: read-out: AOC3 IC50
Sequence (Q16853 whole entry): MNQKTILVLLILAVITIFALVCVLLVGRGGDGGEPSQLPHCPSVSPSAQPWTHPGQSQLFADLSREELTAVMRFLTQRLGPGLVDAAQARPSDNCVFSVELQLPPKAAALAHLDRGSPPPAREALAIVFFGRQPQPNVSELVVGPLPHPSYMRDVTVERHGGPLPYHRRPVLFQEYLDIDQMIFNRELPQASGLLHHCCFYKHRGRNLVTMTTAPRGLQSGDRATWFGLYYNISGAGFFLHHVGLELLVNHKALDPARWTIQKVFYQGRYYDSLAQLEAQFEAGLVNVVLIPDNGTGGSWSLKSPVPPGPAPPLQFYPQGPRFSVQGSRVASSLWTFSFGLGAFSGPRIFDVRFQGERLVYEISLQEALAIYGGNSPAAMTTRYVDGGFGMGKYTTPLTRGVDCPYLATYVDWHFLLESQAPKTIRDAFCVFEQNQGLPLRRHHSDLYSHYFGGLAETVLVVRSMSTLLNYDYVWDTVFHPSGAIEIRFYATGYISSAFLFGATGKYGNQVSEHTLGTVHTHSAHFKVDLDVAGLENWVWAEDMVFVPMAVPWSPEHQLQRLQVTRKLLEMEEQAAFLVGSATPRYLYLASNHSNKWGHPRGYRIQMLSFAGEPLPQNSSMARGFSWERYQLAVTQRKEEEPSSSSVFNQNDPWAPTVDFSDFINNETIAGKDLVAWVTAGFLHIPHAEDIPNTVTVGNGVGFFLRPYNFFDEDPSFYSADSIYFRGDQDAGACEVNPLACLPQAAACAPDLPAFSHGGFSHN
reported.endpoint: IC50 (nM)

Field: example entries. Status: answers known.
| compound | measured.number |
| --- | --- |
| CNC(=O)[C@H]1[C@@H]2CN(S(=O)(=O)c3ccc(OC/C(=C\F)CN)nc3)C[C@@H]21 [Example 27] | 5 |
| NC/C(=C/F)COc1ccc(S(=O)(=O)N2CCC(O)(C(F)(F)F)CC2)cn1 [Example 42] | 6 |
| CC1(C(=O)NCCF)CCN(S(=O)(=O)c2ccc(OC/C(=C\F)CN)nc2)CC1 [Example 53] | 17 |
| CNC(=O)[C@@H]1CCCN1S(=O)(=O)c1ccc(OC/C(=C\F)CN)nc1 [Example 8] | 48 |
| NC/C(=C/F)COc1ccc(S(=O)(=O)N2CCC(C(=O)N3CCOCC3)CC2)cn1 [Example 3] | 88 |

P. COC1CN(S(=O)(=O)c2ccc(OC/C(=C\F)CN)nc2)C1 [Example 33]
Q. CC(=O)NCC1CCN(S(=O)(=O)c2ccc(OC/C(=C\F)CN)nc2)CC1 [Example 28]
Which shows the larger IC50 value: P or Q ? Answer with the label corresponding to your selection.
Q
(Q: 13 nM, P: 3 nM)

a. CNC(=O)[C@@]12C[C@@H]1CN(S(=O)(=O)c1ccc(OC/C(=C\F)CN)nc1)C2 [Example 29]
b. COC(=O)[C@H]1[C@@H]2CN(S(=O)(=O)c3ccc(OC/C(=C\F)CN)nc3)C[C@@H]21 [Example 35]
Field: lower IC50 | Options: a / b Your answer should be the label of the entry you select.
b
(b: 3 nM, a: 8 nM)

A. CCNC(=O)C1CCN(S(=O)(=O)c2ccc(OC/C(=C\F)CN)nc2)CC1 [Example 15]
B. NC/C(=C/F)COc1ccc(S(=O)(=O)N2C[C@H]3C[C@@]3(C(=O)N3CCOCC3)C2)cn1 [Example 22]
Which value of IC50 is smaller, the one for A or the one for B ? Could you answer with the label of the item you picked?
A
(A: 9 nM, B: 35 nM)

---

Molecular target: AOC1 (Homo sapiens)
Construct: purchased R&D Systems 8297-AO-010
Sequence (P19801 20-751): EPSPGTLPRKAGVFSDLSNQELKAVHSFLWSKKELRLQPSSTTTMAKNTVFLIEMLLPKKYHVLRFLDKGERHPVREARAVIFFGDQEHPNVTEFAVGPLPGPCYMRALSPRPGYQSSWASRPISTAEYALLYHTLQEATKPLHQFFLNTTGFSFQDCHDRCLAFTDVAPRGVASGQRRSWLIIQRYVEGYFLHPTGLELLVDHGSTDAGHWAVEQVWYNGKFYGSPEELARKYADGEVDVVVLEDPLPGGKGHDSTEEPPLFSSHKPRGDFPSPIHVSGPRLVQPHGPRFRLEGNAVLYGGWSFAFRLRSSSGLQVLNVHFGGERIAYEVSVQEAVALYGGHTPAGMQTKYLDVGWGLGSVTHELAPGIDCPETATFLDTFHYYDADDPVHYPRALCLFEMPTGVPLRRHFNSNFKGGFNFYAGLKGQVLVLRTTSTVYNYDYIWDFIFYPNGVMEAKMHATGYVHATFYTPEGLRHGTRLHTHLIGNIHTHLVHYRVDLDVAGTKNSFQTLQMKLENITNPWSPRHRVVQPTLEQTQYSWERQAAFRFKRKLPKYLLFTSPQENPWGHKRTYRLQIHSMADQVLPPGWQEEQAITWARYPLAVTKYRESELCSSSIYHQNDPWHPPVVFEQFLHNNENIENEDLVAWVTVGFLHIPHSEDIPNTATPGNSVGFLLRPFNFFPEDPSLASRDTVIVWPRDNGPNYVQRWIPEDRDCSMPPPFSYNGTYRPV
Assay: AOC1 biochemical assay (Amplex Red)
Conditions: read-out: AOC1 IC50
reported.endpoint: IC50 (nM)

A. NC/C(=C/F)COc1ccc(S(=O)(=O)N2CCCCC2)cn1
B. NC/C(=C/F)COc1ccc(S(=O)(=O)N2CC(C(N)=O)C2)cn1
C. NC/C(=C/F)COc1ccc(S(=O)(=O)N2CC(C3CCN(C(=O)C4CC4)CC3)C2)cn1
D. NC/C(=C/F)COc1ccc(S(=O)(=O)N2CCC(C(=O)N3CCOCC3)CC2)cn1
Order the items by recorded IC50; the first position goes to the largest value. Lab note: final answer is the ordered label list.
D, B, C, A
(D: 16400 nM, B: 1360 nM, C: 911 nM, A: 235 nM)

Taken from patent US12213970B2.
